Values were extracted from patent US20240197902A1.

target.desc: Q98L
test: SPR; 25 C
pKd: −log10 of the molar value.
measured.attribute: pKd

binder: BMP9 (ligand) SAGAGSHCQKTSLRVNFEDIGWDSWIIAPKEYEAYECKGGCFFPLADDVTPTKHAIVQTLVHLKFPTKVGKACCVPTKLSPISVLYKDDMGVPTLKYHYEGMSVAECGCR
pKd: 10.15
--
binder: GDF11 (ligand) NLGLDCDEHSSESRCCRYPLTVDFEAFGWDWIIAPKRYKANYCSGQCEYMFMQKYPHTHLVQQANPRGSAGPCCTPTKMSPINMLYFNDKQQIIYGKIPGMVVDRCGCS
pKd: 10.37

1: BMP10 (ligand) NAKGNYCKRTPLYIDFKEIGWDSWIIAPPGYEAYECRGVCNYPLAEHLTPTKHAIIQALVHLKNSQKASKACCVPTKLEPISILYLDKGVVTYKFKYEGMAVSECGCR
2: Activin A (ligand) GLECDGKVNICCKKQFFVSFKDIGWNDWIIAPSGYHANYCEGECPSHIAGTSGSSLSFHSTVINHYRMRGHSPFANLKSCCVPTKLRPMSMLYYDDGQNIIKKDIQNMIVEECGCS
Incoming: Which of these two has the smaller recorded pKd: 1 or 2 ? Mark your answer with the label of the selected entry.
Outgoing: 2
(2: 9.66, 1: 10.19)
